The values you see were collected from paper PMC10893631.

Recorded measurements of GI50, one per entry
Test system: HS 578 T
Experiment: NCI SRB growth inhibition (single dose 10 µM / five-dose)
Assay type: cell-based, human
Details: Homo sapiens; HS 578 T, Breast cancer; five-dose
PROPERTY_NAME: GI50

COc1cccc(C=NNC(=O)c2ccc3[nH]c(-c4ccc(Cl)cc4)nc3c2)c1; 2710 nM
COc1cccc(C=NNC(=O)c2ccc3[nH]c(-c4ccccc4)nc3c2)c1O; 620 nM
COc1cccc(C=NNC(=O)c2ccc3[nH]c(-c4ccc(Cl)cc4)nc3c2)c1O; 700 nM
COc1ccc(-c2nc3cc(C(=O)NN=Cc4cccc(OC)c4O)ccc3[nH]2)cc1; 2220 nM
COc1cc(C=NNC(=O)c2ccc3[nH]c(-c4ccc(Cl)cc4)nc3c2)cc(OC)c1OC; 2580 nM
COc1ccc(-c2nc3cc(C(=O)NN=Cc4ccccc4O)ccc3[nH]2)cc1; 940 nM
O=C(NN=Cc1ccccc1O)c1ccc2[nH]c(-c3ccc(Cl)cc3)nc2c1; 260 nM
COc1ccc(-c2nc3cc(C(=O)NN=Cc4cccc(OC)c4)ccc3[nH]2)cc1; 1900 nM
